Exercise: state measured activity, negative = inhibition for each of the compounds provided.
TESTED_TARGET: Cytochrome P450 1A2 (Homo sapiens)
TEST_METHOD_NOTES: Cytochrome panel assay with activity outcomes; further: on the % scale 0 is the no-effect control and ±100 the full control effect
DETAILS: recombinant CYP, pro-luciferin dealkylation, luminescence, p450-cyp1a2; series mostly up to 57.1 µM
Description: The P450 gene superfamily is involved in the metabolism and clearance of xenobiotics. This assay used various human CYP P450 isozymes to measure the dealkylation of various pro-luciferin substrates to luciferin. The luciferin is then measured by luminescence after the addition of a luciferase detection reagent. […] Inhibitors and some substrates limit the production of luciferin, and decrease measured luminescence. […] 8, Detection, 1 sec, ViewLux luminescent read […]
Among all 16,000 compounds or so, about 5,700 (36%) were called active. Inconclusive results (about 24%) are left out. Some of the results follow.

{"columns": ["STRUCTURE_AS_SMILES", "MEASURED"],
 "data": [
  ["Cn1c(=O)c2c(nc(N/N=C\\c3ccccc3C(=O)O)n2C)n(C)c1=O", "5.78% [at 11.4 µM] (inactive)"],
  ["C[C@@]1(CCOCc2ccccc2)NC(=O)NC1=O", "-13.5% [at 11.4 µM] (inactive)"],
  ["O=C(O)[C@@H](Cc1c[nH]c2ccccc12)C(=O)NO", "-20.4% [at 11.4 µM] (inactive)"]
]}

# return activity, negative = inhibition for each item in the list
1. CC(C)CNC(=O)O
2. CO/N=C1/c2cc(OC)ccc2O[C@@H](c2cccc(OC)c2)[C@H]1O

-14.2% [at 11.4 µM] (inactive)
-7.77% [at 11.4 µM] (inactive)

Values were extracted from PubChem BioAssay AID1851.
